target: RBL-1 Cell Cyclooxygenase (Rattus norvegicus); construct: the supernatant was saved as the source of enzymes; endogenous in cells; host or cells: RBL-1 (rat basophilic leukemia cells), 10,000×g supernatant of homogenate; experiment: Procedure II: cyclooxygenase inhibition in disrupted RBL-1 cells (supernatant as enzyme source); format: biochemical
Sequence (Q63921 27-602): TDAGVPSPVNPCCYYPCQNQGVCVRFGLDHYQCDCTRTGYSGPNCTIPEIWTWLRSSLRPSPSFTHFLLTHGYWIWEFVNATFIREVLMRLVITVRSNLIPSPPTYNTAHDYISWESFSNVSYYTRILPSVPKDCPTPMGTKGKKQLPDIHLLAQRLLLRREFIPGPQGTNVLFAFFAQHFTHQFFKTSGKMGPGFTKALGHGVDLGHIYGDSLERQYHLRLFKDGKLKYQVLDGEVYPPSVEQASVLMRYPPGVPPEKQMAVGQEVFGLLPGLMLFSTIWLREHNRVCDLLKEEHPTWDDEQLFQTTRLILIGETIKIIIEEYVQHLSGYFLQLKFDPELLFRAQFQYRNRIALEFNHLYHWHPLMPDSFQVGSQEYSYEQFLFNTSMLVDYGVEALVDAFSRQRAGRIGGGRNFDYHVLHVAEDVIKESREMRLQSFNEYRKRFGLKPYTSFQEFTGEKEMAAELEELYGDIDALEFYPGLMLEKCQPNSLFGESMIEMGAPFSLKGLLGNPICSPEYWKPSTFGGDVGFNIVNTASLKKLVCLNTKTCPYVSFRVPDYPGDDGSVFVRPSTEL
measurementType: % INHIBITION CO (Procedure II) (%)

# annotated cases, reported % INHIBITION CO (Procedure II) shown
compoundString: COc1ccc(-n2nc(COC(=O)N(O)C(C)C)cc2-c2ccc(C)cc2)cc1
systemTested: RBL-1 Cell Cyclooxygenase (Rattus norvegicus)
unitTag: %
% INHIBITION CO (Procedure II): 64
--
compoundString: COc1ccc(-n2nc(CCCOC(=O)N(C)O)c(Br)c2-c2ccc(Cl)cc2)cc1
systemTested: RBL-1 Cell Cyclooxygenase (Rattus norvegicus)
unitTag: %
% INHIBITION CO (Procedure II): 100
--
compoundString: COc1ccc(-n2nc(CCOC(=O)NO)c(Br)c2-c2ccc(C)cc2)cc1
systemTested: RBL-1 Cell Cyclooxygenase (Rattus norvegicus)
unitTag: %
% INHIBITION CO (Procedure II): 35
--
compoundString: COc1ccc(-n2nc(COC(=O)NO)c(Cl)c2-c2ccc(C)cc2)cc1
systemTested: RBL-1 Cell Cyclooxygenase (Rattus norvegicus)
unitTag: %
% INHIBITION CO (Procedure II): 0
--
compoundString: COc1ccc(-n2nc(COC(=O)N(C)O)c(Br)c2-c2ccc(Cl)cc2)cc1
systemTested: RBL-1 Cell Cyclooxygenase (Rattus norvegicus)
unitTag: %
% INHIBITION CO (Procedure II): 43

1. COc1ccc(-n2nc(CCCOC(=O)N(O)C(C)C)cc2-c2ccc(Cl)cc2)cc1
2. COc1ccc(-n2nc(COC(=O)NO)cc2-c2ccc(Cl)cc2)cc1
**Query** Of 1 versus 2 , which is the one with smaller reported % INHIBITION CO (Procedure II)? Answer by quoting the chosen item's label.
**Result** 2

a. COc1ccc(-n2nc(CCOC(=O)N(C)O)c(Cl)c2-c2ccc(C)cc2)cc1
b. COc1ccc(-n2nc(COC(=O)N(C)O)c(Br)c2-c2ccc(C)cc2)cc1
c. COc1ccc(-n2nc(COC(=O)NO)c(Br)c2-c2ccc(Cl)cc2)cc1
**Query** Ordering criterion: % INHIBITION CO (Procedure II); begin with the maximum. To answer, arrange all of the labels according to the requested order.
**Result** b, a, c

A. COc1ccc(-n2nc(COC(=O)NO)c(Br)c2-c2ccc(C)cc2)cc1
B. COc1ccc(-n2nc(COC(=O)N(O)C(C)C)c(Cl)c2-c2ccc(C)cc2)cc1
**Query** Lower value of % INHIBITION CO (Procedure II) belongs to which: A or B ? Give the label of your selection.
**Result** B
(B: 8%, A: 85%)

###

Target sequence: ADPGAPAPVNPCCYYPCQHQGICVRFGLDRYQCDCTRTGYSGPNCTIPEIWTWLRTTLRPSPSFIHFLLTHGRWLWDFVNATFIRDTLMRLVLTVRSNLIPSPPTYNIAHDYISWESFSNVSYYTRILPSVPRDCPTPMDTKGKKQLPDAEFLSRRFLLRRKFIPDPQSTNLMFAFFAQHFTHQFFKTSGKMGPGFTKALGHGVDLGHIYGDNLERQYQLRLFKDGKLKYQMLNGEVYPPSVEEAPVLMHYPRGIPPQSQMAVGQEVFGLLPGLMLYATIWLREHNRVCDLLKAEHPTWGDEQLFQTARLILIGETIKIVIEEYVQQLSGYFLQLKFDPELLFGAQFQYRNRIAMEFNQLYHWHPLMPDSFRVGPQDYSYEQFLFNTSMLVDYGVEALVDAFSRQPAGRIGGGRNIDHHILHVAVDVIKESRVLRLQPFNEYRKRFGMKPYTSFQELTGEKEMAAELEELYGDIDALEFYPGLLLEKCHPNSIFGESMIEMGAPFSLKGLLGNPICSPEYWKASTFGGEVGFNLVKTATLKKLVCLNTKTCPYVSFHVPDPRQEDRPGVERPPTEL
measurementType: IC50 (nM)

compound: COc1ccc(-n2nc(COC(=O)N(C)O)cc2-c2ccc(Cl)cc2)cc1 [1-B]
valueMeasured: 730
--
compound: COc1ccc(-n2nc(COC(=O)NO)cc2-c2ccc(C)cc2)cc1 [1-J]
valueMeasured: 730

a. COc1ccc(-n2nc(CCCOC(=O)N(C)O)c(Br)c2-c2ccc(Cl)cc2)cc1 [3-F]
b. COc1ccc(-n2nc(COC(=O)N(C)O)c(Br)c2-c2ccc(Cl)cc2)cc1 [1-E]
c. COc1ccc(-n2nc(CCOC(=O)N(O)C(C)C)c(Br)c2-c2ccc(Cl)cc2)cc1 [2-F]
**Query** // sort entries: IC50, high to low List labels; respect the requested ordering.
**Result** a, b, c

Origin of the recorded values: patent US5387602A
